Assignment: determine reported normalized Cell Index (nCI) for the given compounds.
- Tested on: HUVEC cells
- protocol.notes: HUVEC integrity in RTCA-DP system (normalized cell index)
- Type: cell-based, human
- run.parameters: 1.0 mM, 3 hours

CN(C)C(=N)N=C(N)NS(=O)(=O)C1CCCCC1 [Compound 3] has a reported normalized Cell Index (nCI) of 0.233 ± 0.039

# normalized Cell Index (nCI) (compound: CN(C)C(=N)N=C(N)NS(=O)(=O)c1ccccc1C#N [Compound 6] ) is 0.010 ± 0.003

Sure, the documented normalized Cell Index (nCI) for CN(C)C(=N)N=C(N)NS(=O)(=O)c1ccc(C#N)cc1 [Compound 8] is 0.006 ± 0.004

compound CN(C)C(=N)N=C(N)NS(=O)(=O)c1cccc(C#N)c1 [Compound 7] , normalized Cell Index (nCI) observed: 0.013 ± 0.004

Measured normalized Cell Index (nCI), CCCCS(=O)(=O)NC(N)=NC(=N)N(C)C [Compound 1] : 0.440 ± 0.032

Record CCCCCCCCS(=O)(=O)NC(N)=NC(=N)N(C)C [Compound 2] . Reported normalized Cell Index (nCI): 0.652 ± 0.006
